Cited source: the supplement of paper PMC10567573

B1: S100A14 (parent)
chain: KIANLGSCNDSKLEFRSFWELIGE

Variants of: B1
Assay: protein stability index of a GFP-peptide fusion (GPS, HEK-293T) (PSI 1-6); higher = more stable;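 also: lentivirally expressed fusions sorted by FACS into six bins by GFP to DsRed ratio, PSI derived from sequencing read proportions per bin multiplied by bin number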
Settings: c terminus: a fixed tail appended
Measurement Name: protein stability index
Give the figure by itself; no unit, no explanation.

For `E20Y` , what is its reported protein stability index?
2.73

For `F18L` , what is its reported protein stability index?
2.57

For `L13C` , what is its reported protein stability index?
1.21

For `L21W` , what is its reported protein stability index?
1.18

For `D10N` , what is its reported protein stability index?
2.39
